- STUDY_TARGET: Vasopressin V2 receptor (Homo sapiens, UniProt P30518)
- METHOD_DESCRIPTION: Agonist activity at recombinant human vasopressin V2 receptor expressed in HEK293 cells by luciferase reporter gene assay
- Format: functional, cell-based
- MEASUREMENT_SETUP: read-out: EC50
Bridge positions count the residues as written; N and C are the ends. Square brackets hold non-standard residues; d marks the D form. Peptide text beside a SMILES is read from it. * marks the point of attachment. Ala(cPent) = N[C@@H](CC1CCCC1)C(=O)O; Orn = NCCC[C@H](N)C(=O)O; Dab = NCC[C@H](N)C(=O)O; NHOH = ON*
The compounds listed here are annotated with their EC50.
Give just the number in nM; leave the unit off.

Observe how each entry below is paired with its result.
CC[C@H](C)[C@@H]1NC(=O)[C@H](CC2CCCC2)NC(=O)[C@@H](N)CSSC[C@@H](C(=O)N2CCC[C@H]2C(=O)N[C@@H](CCN)C(=O)NCC(N)=O)NC(=O)[C@H](CC(N)=O)NC(=O)[C@H](CCC(N)=O)NC1=O (H-C[Ala(cPent)]IQNCP[Dab]G-NH2; disulfide 1-6) : 1200
CC[C@H](C)[C@@H]1NC(=O)[C@H](Cc2ccccc2)NC(=O)[C@@H](N)CSSC[C@@H](C(=O)N2CCC[C@H]2C(=O)N[C@@H](CCN)C(=O)NCC(N)=O)NC(=O)[C@H](CC(N)=O)NC(=O)[C@H](CCC(N)=O)NC1=O (H-CFIQNCP[Dab]G-NH2; disulfide 1-6) : 73

In the following, a different compound is considered.
Look up EC50: CC[C@H](C)[C@@H]1NC(=O)[C@H](Cc2ccccc2)NC(=O)[C@@H](N)CSSC[C@@H](C(=O)N2CCC[C@H]2C(=O)N[C@@H](CCCN)C(=O)NCC(N)=O)NC(=O)[C@H](CC(N)=O)NC(=O)[C@H](CCC(=O)NO)NC1=O (H-CFIE(NHOH)NCP[Orn]G-NH2; disulfide 1-6)
170

====

- STUDY_TARGET: Vasopressin V1a/V2 (Homo sapiens) (UniProt P30518+P37288)
- Sequence (P30518 whole entry, looked up): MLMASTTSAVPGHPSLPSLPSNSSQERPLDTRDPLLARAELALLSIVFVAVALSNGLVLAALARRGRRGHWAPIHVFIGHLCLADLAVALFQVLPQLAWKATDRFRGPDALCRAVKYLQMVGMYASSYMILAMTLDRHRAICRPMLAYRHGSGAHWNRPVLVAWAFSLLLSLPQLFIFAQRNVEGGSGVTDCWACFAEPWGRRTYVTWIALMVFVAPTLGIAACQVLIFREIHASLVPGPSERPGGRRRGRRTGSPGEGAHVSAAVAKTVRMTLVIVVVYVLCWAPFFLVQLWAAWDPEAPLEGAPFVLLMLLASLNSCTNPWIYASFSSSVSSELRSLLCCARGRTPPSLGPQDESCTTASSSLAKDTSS
- Sequence (P37288 whole entry, looked up): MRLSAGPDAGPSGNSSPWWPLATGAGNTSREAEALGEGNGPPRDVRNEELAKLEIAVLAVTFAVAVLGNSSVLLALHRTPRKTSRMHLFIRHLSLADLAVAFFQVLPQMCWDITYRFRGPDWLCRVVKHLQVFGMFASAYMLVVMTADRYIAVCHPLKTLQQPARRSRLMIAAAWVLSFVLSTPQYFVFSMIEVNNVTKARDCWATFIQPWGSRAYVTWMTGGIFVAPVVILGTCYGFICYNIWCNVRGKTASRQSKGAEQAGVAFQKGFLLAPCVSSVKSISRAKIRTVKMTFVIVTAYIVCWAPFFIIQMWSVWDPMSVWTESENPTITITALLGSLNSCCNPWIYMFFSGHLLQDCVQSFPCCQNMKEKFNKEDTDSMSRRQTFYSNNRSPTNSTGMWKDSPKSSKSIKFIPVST
- METHOD_DESCRIPTION: Selectivity ratio of EC50 for human vasopressin V2 receptor to EC50 for human vasopressin V1a receptor
Numbered stars: 1 amine (or outer) side, 2 acyl side, 3 side chain; on linkers, the order of the positions; unused ones are H or OH. Bridge positions count the residues as written; N and C are the ends. Square brackets hold non-standard residues; d marks the D form. Peptide text beside a SMILES is read from it. X4 = CONC(=O)CC[C@H](N[*:1])C(=O)[*:2]; Orn = NCCC[C@H](N)C(=O)O
MEASURED_ENDPOINT: Ratio EC50
Kindly provide the number alone.

Look up Ratio EC50: CC[C@H](C)[C@@H]1NC(=O)[C@H](Cc2ccccc2)NC(=O)[C@@H](N)CSSC[C@@H](C(=O)N2CCC[C@H]2C(=O)N[C@@H](CCCN)C(=O)NCC(N)=O)NC(=O)[C@H](CC(N)=O)NC(=O)[C@H](CCC(=O)NOC)NC1=O (H-CFI[X4]NCP[Orn]G-NH2; disulfide 1-6)
1500

====

- STUDY_TARGET: Oxytocin receptor (Homo sapiens)
- Sequence (whole entry): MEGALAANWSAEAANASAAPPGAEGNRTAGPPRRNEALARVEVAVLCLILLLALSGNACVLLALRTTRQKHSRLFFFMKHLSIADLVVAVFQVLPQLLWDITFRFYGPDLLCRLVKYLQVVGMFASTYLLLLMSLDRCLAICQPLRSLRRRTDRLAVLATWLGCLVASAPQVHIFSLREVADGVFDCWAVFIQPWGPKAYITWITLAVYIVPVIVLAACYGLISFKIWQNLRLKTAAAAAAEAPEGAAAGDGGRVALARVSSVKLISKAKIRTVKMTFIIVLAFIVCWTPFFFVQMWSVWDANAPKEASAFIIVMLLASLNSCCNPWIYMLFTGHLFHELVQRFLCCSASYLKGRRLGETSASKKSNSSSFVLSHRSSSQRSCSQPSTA
- METHOD_DESCRIPTION: Partial agonist activity at human OT receptor expressed in CHO-K1 cells by luciferase reporter gene assay
- Assay type: functional, cell-based
Bridge positions count the residues as written; N and C are the ends. Square brackets hold non-standard residues; d marks the D form. Peptide text beside a SMILES is read from it. Ala(2-furyl) = N[C@@H](Cc1ccco1)C(=O)O; 3Thi = N[C@@H](Cc1ccsc1)C(=O)O; Dab = NCC[C@H](N)C(=O)O
The compounds listed here are annotated with their Efficacy.

Observe how each entry below is paired with its result.
CC[C@H](C)[C@@H]1NC(=O)[C@H](Cc2ccsc2)NC(=O)[C@@H](N)CSSC[C@@H](C(=O)N2CCC[C@H]2C(=O)N[C@@H](CCN)C(=O)NCC(N)=O)NC(=O)[C@H](CC(N)=O)NC(=O)[C@H](CCC(N)=O)NC1=O (H-C[3Thi]IQNCP[Dab]G-NH2; disulfide 1-6) : < 70%
CC[C@H](C)[C@@H]1NC(=O)[C@H](Cc2ccco2)NC(=O)[C@@H](N)CSSC[C@@H](C(=O)N2CCC[C@H]2C(=O)N[C@@H](CCN)C(=O)NCC(N)=O)NC(=O)[C@H](CC(N)=O)NC(=O)[C@H](CC(N)=O)NC1=O (H-C[Ala(2-furyl)]INNCP[Dab]G-NH2; disulfide 1-6) : < 70%

In the following, a different compound is considered.
Look up Efficacy: CC[C@H](C)[C@@H]1NC(=O)[C@H](Cc2ccccc2)NC(=O)[C@@H](N)CSSC[C@@H](C(=O)N2CCC[C@H]2C(=O)N[C@@H](CCN)C(=O)NCC(N)=O)NC(=O)[C@H](CC(N)=O)NC(=O)[C@H](CCC(N)=O)NC1=O (H-CFIQNCP[Dab]G-NH2; disulfide 1-6)
< 70%

====

- STUDY_TARGET: UniProt P30559
- Sequence (P30559 whole entry): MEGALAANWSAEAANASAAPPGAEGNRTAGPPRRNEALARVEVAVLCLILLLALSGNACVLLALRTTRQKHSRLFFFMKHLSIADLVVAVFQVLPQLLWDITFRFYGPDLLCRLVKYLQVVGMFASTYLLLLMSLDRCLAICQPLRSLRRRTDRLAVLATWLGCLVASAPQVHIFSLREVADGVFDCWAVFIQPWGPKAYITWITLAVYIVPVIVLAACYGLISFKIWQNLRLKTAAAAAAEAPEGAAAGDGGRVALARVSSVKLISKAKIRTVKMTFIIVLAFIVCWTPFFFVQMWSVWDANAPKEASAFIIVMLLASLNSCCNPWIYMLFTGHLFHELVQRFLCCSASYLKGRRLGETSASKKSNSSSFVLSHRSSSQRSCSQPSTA
- METHOD_DESCRIPTION: Agonist activity at human OT receptor expressed in CHO-K1 cells by luciferase reporter gene assay
- Type: functional, cell-based
- MEASUREMENT_SETUP: read-out: pEC50 (converted)
Bridge positions count the residues as written; N and C are the ends. Square brackets hold non-standard residues; d marks the D form. Peptide text beside a SMILES is read from it. * marks the point of attachment. 3Pal = N[C@@H](Cc1cccnc1)C(=O)O; Orn = NCCC[C@H](N)C(=O)O; Dab = NCC[C@H](N)C(=O)O; N(Me)OMe = CON(C)*; NHOH = ON*
The compounds listed here are annotated with their EC50.

CC[C@H](C)[C@@H]1NC(=O)[C@H](Cc2cccnc2)NC(=O)[C@@H](N)CSSC[C@@H](C(=O)N2CCC[C@H]2C(=O)N[C@@H](CCN)C(=O)NCC(N)=O)NC(=O)[C@H](CC(N)=O)NC(=O)[C@H](CCC(N)=O)NC1=O (H-C[3Pal]IQNCP[Dab]G-NH2; disulfide 1-6) : > 10 µM
CC[C@H](C)[C@@H]1NC(=O)[C@H](Cc2ccccc2)NC(=O)[C@@H](N)CSSC[C@@H](C(=O)N2CCC[C@H]2C(=O)N[C@@H](CCCN)C(=O)NCC(N)=O)NC(=O)[C@H](CC(N)=O)NC(=O)[C@H](CC(=O)NO)NC1=O (H-CFID(NHOH)NCP[Orn]G-NH2; disulfide 1-6) : > 10 µM

Form: Entry = CC[C@H](C)[C@@H]1NC(=O)[C@H](Cc2ccccc2)NC(=O)[C@@H](N)CSSC[C@@H](C(=O)N2CCC[C@H]2C(=O)N[C@@H](CCCN)C(=O)NCC(N)=O)NC(=O)[C@H](CC(N)=O)NC(=O)[C@H](CCC(=O)N(C)OC)NC1=O (H-CFIE(N(Me)OMe)NCP[Orn]G-NH2; disulfide 1-6) | System = UniProt P30559 | EC50 = ____
> 10 µM

====

- STUDY_TARGET: Vasopressin V1b receptor (Homo sapiens)
- Sequence (P47901 whole entry): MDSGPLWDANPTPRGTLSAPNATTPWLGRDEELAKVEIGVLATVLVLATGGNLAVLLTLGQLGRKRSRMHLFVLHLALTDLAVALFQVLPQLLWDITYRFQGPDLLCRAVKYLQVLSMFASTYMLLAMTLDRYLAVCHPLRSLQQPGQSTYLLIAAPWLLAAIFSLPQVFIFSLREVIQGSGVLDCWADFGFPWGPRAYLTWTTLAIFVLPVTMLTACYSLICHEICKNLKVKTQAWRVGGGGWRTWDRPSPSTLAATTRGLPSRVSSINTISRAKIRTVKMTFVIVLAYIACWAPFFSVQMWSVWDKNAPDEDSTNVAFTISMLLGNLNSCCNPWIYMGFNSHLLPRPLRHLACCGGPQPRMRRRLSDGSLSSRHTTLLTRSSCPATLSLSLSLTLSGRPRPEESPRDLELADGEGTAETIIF
- METHOD_DESCRIPTION: Agonist activity at recombinant human vasopressin V1b receptor expressed in Flp-In-293 cells by luciferase reporter gene assay
- Format: functional, cell-based
- MEASUREMENT_SETUP: read-out: EC50
Bridge positions count the residues as written; N and C are the ends. Square brackets hold non-standard residues; d marks the D form. Peptide text beside a SMILES is read from it. * marks the point of attachment. Orn(Pr) = CCCNCCC[C@H](N)C(=O)O; Orn = NCCC[C@H](N)C(=O)O; NHOH = ON*
MEASURED_ENDPOINT: EC50 (nM)
Give just the number in nM; leave the unit off.

CCCNCCC[C@H](NC(=O)[C@@H]1CCCN1C(=O)[C@@H]1CSSC[C@H](N)C(=O)N[C@@H](Cc2ccccc2)C(=O)N[C@@H]([C@@H](C)CC)C(=O)N[C@@H](CCC(N)=O)C(=O)N[C@@H](CC(N)=O)C(=O)N1)C(=O)NCC(N)=O (H-CFIQNCP[Orn(Pr)]G-NH2; disulfide 1-6) : 38

In the following, a different compound is considered.
Look up EC50: CC[C@H](C)[C@@H]1NC(=O)[C@H](Cc2ccccc2)NC(=O)[C@@H](N)CSSC[C@@H](C(=O)N2CCC[C@H]2C(=O)N[C@@H](CCCN)C(=O)NCC(N)=O)NC(=O)[C@H](CC(N)=O)NC(=O)[C@H](CCC(=O)NO)NC1=O (H-CFIE(NHOH)NCP[Orn]G-NH2; disulfide 1-6)
70
